# Test system: OVCAR-4 ovarian
# METHOD: NCI tumour cell line growth inhibition, 48 h; in the data active = GI50 below about 0.43 µM; inactive = the rest
Select the correct class. Options are TRUE for active, FALSE for inactive and nothing else.

Past entries and their recorded results:
O=C(/C=C/C=C/c1ccccc1)c1ccco1 = FALSE
O=C(NCCCc1cn[nH]c1)c1ccc(-c2ccncc2)c(C#Cc2ccc(F)cc2)c1 = FALSE
COC(=O)c1c(-c2cccs2)oc(-c2cccs2)c1C(=O)OC = FALSE
CCCCCCSSC(=S)N(CC)CC = FALSE

What did the test return for "CN=C1C=CC(=C(c2ccc(N(C)C)cc2)c2ccc(N(C)C)cc2)C=C1" ?
TRUE

Status in this test for "c1ccc(OCCC[P+](c2ccccc2)(c2ccccc2)c2ccccc2)cc1" ?
FALSE

Can you look up the reported call for "CCCc1cc(=O)n2c(C(=O)Nc3ccc(F)cc3)c(C(=O)Nc3ccc(F)cc3)sc2n1" for me?
FALSE

Record lookup: outcome of this test for "COc1ccc(-c2ccc(/C=N/n3c(COc4ccccc4Cl)nn(CN4CCOCC4)c3=S)o2)c([N+](=O)[O-])c1" ?
FALSE

GET /call?item= "O=C(NCC(F)(F)F)Nc1cccc(-c2cnc3cc(-c4ccc(F)cc4)ccn23)c1" returns the recorded outcome of this test.
FALSE

What call does the record list for "CNCCCNc1nc2ccccc2c2c(=O)c3cc(OC)ccc3sc12" ?
FALSE

These data points were gathered from PubChem BioAssay (NCI).
